biological target: Thrombin (Homo sapiens); assay: biochemical; settings: read-out: ID50 thrombin
The following molecules are shown together with reported IC50 values.
Answer in µM, number only, no unit symbol.

Check out these entries, answers already filled in.
- molecule: "N=C(N)c1ccc2cc(OC(=O)c3ccc(CN4CCOCC4)o3)ccc2c1 [compound 25]"
  assay system: "Thrombin (Homo sapiens)"
  readout value: 3
- molecule: "N=C(N)c1ccc2cc(OC(=O)c3ccc(CN)o3)ccc2c1 [compound 33]"
  assay system: "Thrombin (Homo sapiens)"
  readout value: 3

Dear colleague, please send me the reported IC50 for N=C(N)c1ccc2cc(OC(=O)c3ccc(CNC(=O)C(N)CCCCN)o3)ccc2c1 (stereo not drawn) [compound 35] when you can. 3

====

Sequence of the target: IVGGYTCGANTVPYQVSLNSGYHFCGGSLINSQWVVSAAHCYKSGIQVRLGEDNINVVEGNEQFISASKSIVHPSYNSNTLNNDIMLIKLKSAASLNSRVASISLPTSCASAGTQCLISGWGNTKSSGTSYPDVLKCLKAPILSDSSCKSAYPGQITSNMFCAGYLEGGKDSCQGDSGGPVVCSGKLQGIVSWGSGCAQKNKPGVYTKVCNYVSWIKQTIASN
Category scheme (IC50): 0: < 500 nM; 1: ≥ 500 nM and < 1000 nM; 2: ≥ 1000 nM

- compound: "CCNC(=NC)NCc1ccc(C(=O)Oc2ccc3cc(C(=N)N)ccc3c2)o1"
  group label: 2
- compound: "N=C(N)c1ccc2cc(OC(=O)c3ccc(CNC(=O)C(N)COCc4ccccc4)o3)ccc2c1 (stereo not drawn)"
  group label: 0
- compound: "N=C(N)c1ccc2cc(OC(=O)c3ccc(CN4CCOCC4)o3)ccc2c1"
  group label: 1
- compound: "CN=C(NC)NCc1ccc(C(=O)Oc2ccc3cc(C(=N)N)ccc3c2)o1"
  group label: 2
- compound: "N=C(N)c1ccc2cc(OC(=O)c3ccc(CNC(=O)C(N)CCCCN)o3)ccc2c1 (stereo not drawn)"
  group label: 2
- compound: "N=C(N)NCCc1ccc(C(=O)Oc2ccc3cc(C(=N)N)ccc3c2)o1"
  group label: 1
- compound: "CN(C(=N)N)c1ccc(C(=O)Oc2ccc3cc(C(=N)N)ccc3c2)o1"
  group label: 2
- compound: "N=C(N)c1ccc2cc(OC(=O)c3ccc(CNC(=O)c4cnc5ccccc5c4)o3)ccc2c1"
  group label: 1

Kindly state the category for this compound: "N=C(N)c1ccc2cc(OC(=O)c3ccc(CN4CCN(Cc5ccccc5)CC4)o3)ccc2c1" 0

====

Target: C1s (Homo sapiens, UniProt P09871)
Sequence (P09871 438-688 limits assumed): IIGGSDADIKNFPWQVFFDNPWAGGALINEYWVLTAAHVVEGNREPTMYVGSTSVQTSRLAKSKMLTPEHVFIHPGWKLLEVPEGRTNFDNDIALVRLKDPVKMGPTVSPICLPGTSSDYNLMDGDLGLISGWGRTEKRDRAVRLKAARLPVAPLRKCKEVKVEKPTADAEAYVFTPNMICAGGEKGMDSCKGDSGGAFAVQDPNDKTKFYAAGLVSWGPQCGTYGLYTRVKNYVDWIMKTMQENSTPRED
Sequence (P09871 16-437 partner limits assumed): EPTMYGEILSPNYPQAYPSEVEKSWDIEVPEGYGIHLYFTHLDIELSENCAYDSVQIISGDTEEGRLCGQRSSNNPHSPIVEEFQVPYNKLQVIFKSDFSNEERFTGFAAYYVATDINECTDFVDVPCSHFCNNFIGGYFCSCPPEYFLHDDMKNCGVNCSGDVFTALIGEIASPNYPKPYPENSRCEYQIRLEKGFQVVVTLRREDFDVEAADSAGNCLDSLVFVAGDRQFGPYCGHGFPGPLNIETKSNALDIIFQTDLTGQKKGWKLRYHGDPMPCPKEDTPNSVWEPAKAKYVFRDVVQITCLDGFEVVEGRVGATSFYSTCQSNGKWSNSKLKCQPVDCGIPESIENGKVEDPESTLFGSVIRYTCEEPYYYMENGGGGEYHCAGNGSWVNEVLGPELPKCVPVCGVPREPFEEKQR
measure name: pIC50
// returns pIC50 (minus log10 of molar concentration), number only

Worked examples, 5 compounds total:
- compound: "N=C(N)c1ccc2cc(OC(=O)c3ccc(CNC(=O)c4cccnc4)o3)ccc2c1"
  readout value: 6.52
- compound: "CN(C(=N)N)c1ccc(C(=O)Oc2ccc3cc(C(=N)N)ccc3c2)o1"
  readout value: 6.52
- compound: "N=C(N)NCc1ccc(C(=O)Oc2ccc3cc(C(=N)N)ccc3c2)s1"
  readout value: 5.52
- compound: "N=C(N)c1ccc2cc(OC(=O)c3ccc(CN4CCOCC4)o3)ccc2c1"
  readout value: 5.70
- compound: "N=C(N)c1ccc2cc(OC(=O)c3ccc(CNC(=O)CCOCc4ccccc4)o3)ccc2c1"
  readout value: 5.52

Using known records, supply pIC50 for N=C(N)c1ccc2cc(OC(=O)c3ccc(NC(=O)C4CCC(CN)CC4)o3)ccc2c1 (stereo not drawn) 6.40

Look up pIC50 of "N=C(N)Nc1ccc(C(=O)NCc2ccc(C(=O)Oc3ccc4cc(C(=N)N)ccc4c3)o2)cc1" and report it. 6.40

Recall and state the measured pIC50 for "N=C(N)NCc1ccc(C(=O)Oc2ccc3cc(C(=N)N)ccc3c2)o1" . 5.52

Specify reported pIC50 for the compound shown: N=C(N)c1ccc2cc(OC(=O)c3ccc(CNC(=O)C4CCC(CN)CC4)o3)ccc2c1 (stereo not drawn) 5.52

Report pIC50 for "N=C(N)NCCc1ccc(C(=O)Oc2ccc3cc(C(=N)N)ccc3c2)o1" 5.52

====

target: UniProtKB P00747
Sequence (P00747 581-810 limits assumed, species assumed): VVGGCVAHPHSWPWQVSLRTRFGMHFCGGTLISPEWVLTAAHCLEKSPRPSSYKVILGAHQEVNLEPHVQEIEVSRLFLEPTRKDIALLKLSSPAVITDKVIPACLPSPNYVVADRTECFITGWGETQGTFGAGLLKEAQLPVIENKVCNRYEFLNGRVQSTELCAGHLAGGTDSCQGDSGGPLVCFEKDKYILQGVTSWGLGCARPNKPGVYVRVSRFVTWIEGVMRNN
Sequence (P00747 97-580 partner limits assumed, species assumed): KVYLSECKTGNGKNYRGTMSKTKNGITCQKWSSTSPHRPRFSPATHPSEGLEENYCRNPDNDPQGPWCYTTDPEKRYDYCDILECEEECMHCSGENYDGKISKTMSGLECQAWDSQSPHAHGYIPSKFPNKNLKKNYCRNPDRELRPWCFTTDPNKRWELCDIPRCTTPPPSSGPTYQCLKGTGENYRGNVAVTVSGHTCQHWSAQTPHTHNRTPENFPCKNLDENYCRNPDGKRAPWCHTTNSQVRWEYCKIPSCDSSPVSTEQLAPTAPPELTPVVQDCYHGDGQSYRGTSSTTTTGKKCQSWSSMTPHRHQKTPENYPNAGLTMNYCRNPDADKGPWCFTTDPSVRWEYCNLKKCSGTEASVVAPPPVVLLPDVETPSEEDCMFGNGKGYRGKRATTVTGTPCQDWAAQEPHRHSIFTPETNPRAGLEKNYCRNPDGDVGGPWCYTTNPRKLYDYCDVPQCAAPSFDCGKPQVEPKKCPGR
measure name: IC50
Param answer (str): number followed by unit.

- compound smiles: "N=C(N)c1ccc2cc(OC(=O)c3ccc(CN4CCOCC4)o3)ccc2c1"
  assay system: "UniProtKB P00747"
  IC50: "600 nM"
- compound smiles: "N=C(N)c1ccc2cc(OC(=O)c3ccc(CNC(=O)c4cccnc4)o3)ccc2c1"
  assay system: "UniProtKB P00747"
  IC50: "1000 nM"
- compound smiles: "CCN=C(NCC)NCc1ccc(C(=O)Oc2ccc3cc(C(=N)N)ccc3c2)o1"
  assay system: "UniProtKB P00747"
  IC50: "800 nM"
- compound smiles: "CN(C)Cc1ccc(C(=O)Oc2ccc3cc(C(=N)N)ccc3c2)o1"
  assay system: "UniProtKB P00747"
  IC50: "2000 nM"

Pending molecule:
Supply IC50 measured with UniProtKB P00747 for "N=C(N)NCCc1ccc(C(=O)Oc2ccc3cc(C(=N)N)ccc3c2)o1" . 6000 nM

====

Measured Inhibition of complement mediated hemolysis (%) accompanies every entry in the list below.
tested on: complement; assay: Inhibition of complement mediated hemolysis; type: cell-based; conditions: 1 × 10^-5
Give the number; % is assumed, so skip it.

- compound: "N=C(N)c1ccc2cc(OC(=O)c3ccc(CN)s3)ccc2c1"
  readout value: 100
- compound: "CN(C(=N)N)c1ccc(C(=O)Oc2ccc3cc(C(=N)N)ccc3c2)o1"
  readout value: 100
- compound: "N=C(N)c1ccc2cc(OC(=O)c3ccc(CNC(=O)CCN)o3)ccc2c1"
  readout value: 100
- compound: "N=C(N)c1ccc2cc(OC(=O)c3ccc(CNC(=O)CCOCc4ccccc4)o3)ccc2c1"
  readout value: 100
- compound: "N=C(N)c1ccc2cc(OC(=O)c3ccc(NC(=O)C4CCC(CN)CC4)o3)ccc2c1 (centres unmarked)"
  readout value: 99

Specify measured Inhibition of complement mediated hemolysis (%) for "N=C(N)c1ccc2cc(OC(=O)c3ccc(CNC4=NCCN4)o3)ccc2c1" . 100

Answer with reported Inhibition of complement mediated hemolysis (%) of "CNC(=N)Nc1ccc(C(=O)Oc2ccc3cc(C(=N)N)ccc3c2)o1" 100

Provide only the value of recorded Inhibition of complement mediated hemolysis (%) for N=C(N)c1ccc2cc(OC(=O)c3ccc(CNC(=O)C(N)COCc4ccccc4)o3)ccc2c1 (centres unmarked) 100

====

assay: Median lethal dose (LD50); conditions: in vivo, ip; mouse, I.P.
measure name: LD50 (mg/kg)
Give just the numeric value; mg/kg need not be written.

- compound smiles: "N=C(N)c1ccc2cc(OC(=O)c3ccc(CN)s3)ccc2c1"
  measure name: "LD50"
  readout value: 200

Now for a further molecule.
Give a short answer stating reported LD50 for "N=C(N)NCc1ccc(C(=O)Oc2ccc3cc(C(=N)N)ccc3c2)o1" . 100

====

System: complement
Assay: Inhibition of complement mediated hemolysis
Format: cell-based
Details: 1 × 10^-7
Procedure: The complement mediated hemolysis is widely used as a means to determine the titration of complement. The principle of this method is based on the fact that hemolysis is caused by the activation of complement, when the latter is added to a complex (immune complex) of erythrocytes and the antibody thereof. […] The anti-C1 esterase (C1r, C1s) activity was determined according to the method of Okamura et al. [K. Okamura, M. Muramatsu and B. Fujii, Biochem. Biophys. […]
measure name: Inhibition of complement mediated hemolysis (%)
Numeric answer only, unit % assumed.

Some solved cases for reference:
- compound: "N=C(N)c1ccc2cc(OC(=O)c3ccc(CNC(=O)C(N)COCc4ccccc4)o3)ccc2c1 (stereo not shown)"
  assay system: "complement"
  readout value: 68
- compound: "N=C(N)c1ccc2cc(OC(=O)c3ccc(CCNC(=O)C4CCC(CN)CC4)o3)ccc2c1 (stereo not shown)"
  assay system: "complement"
  readout value: 71
- compound: "N=C(N)Nc1ccc(C(=O)NCc2ccc(C(=O)Oc3ccc4cc(C(=N)N)ccc4c3)o2)cc1"
  assay system: "complement"
  readout value: 99

Please supply the value of reported Inhibition of complement mediated hemolysis (%) for the item "CCN=C(NCC)NCc1ccc(C(=O)Oc2ccc3cc(C(=N)N)ccc3c2)o1" 98

Report Inhibition of complement mediated hemolysis (%), nothing else, for this compound: "N=C(N)c1ccc2cc(OC(=O)c3ccc(CN)o3)ccc2c1" 81

Input "CNC(=N)Nc1ccc(C(=O)Oc2ccc3cc(C(=N)N)ccc3c2)o1" , output reported Inhibition of complement mediated hemolysis (%). 96

Given the compound "N=C(N)c1ccc2cc(OC(=O)c3ccc(CN)s3)ccc2c1" , write its reported Inhibition of complement mediated hemolysis (%). 97
